System: NCI-H226 lung
Experiment: NCI tumour cell line growth inhibition, 48 h
value-type: TGI (µM)
Provide only the numeric value, understood in µM.

Challenge: For the molecule `CN(C)CCCN1c2nc3ccccc3cc2Sc2cc3ccccc3nc21` , what TGI is on record?
Response given: 4.03

Challenge: For the molecule `Clc1ccc2[nH]cc(-c3nc(-c4c[nH]c5ncccc45)cs3)c2c1` , what TGI is on record?
Response given: 22.2

Challenge: For the molecule `CC(C)c1ccc(C(=O)Nc2sc3c(c2C#N)CCC(=O)C3)cc1` , what TGI is on record?
Response given: 16.3

---

Test system: SF-268 CNS
Experiment: NCI tumour cell line growth inhibition, 48 h
Would you kindly list TGI for each of these compounds?

Challenge: What is its TGI for SF-268 CNS? Entry: CN1C(=S)C(c2ccccc2)Sc2ccccc21 (stereo unspecified)
Response given: > 100 µM

Challenge: What is its TGI for SF-268 CNS? Entry: `COc1ccc(C(N)=O)cc1N=NN(C)C`
Response given: > 100 µM

Challenge: What is its TGI for SF-268 CNS? Entry: `O=C(Nc1nc2c(=O)[nH]cnc2s1)c1ccccc1`
Response given: > 100 µM

Challenge: What is its TGI for SF-268 CNS? Entry: `O=C(Nc1cccc(C(F)(F)F)c1)O/N=C(/Cl)CCl`
Response given: > 100 µM

Challenge: What is its TGI for SF-268 CNS? Entry: O=c1/c(=C\c2ccccc2)sc2n1C(c1ccccc1)C1(O)CCCCC1N=2 (stereo unspecified)
Response given: > 100 µM

Challenge: What is its TGI for SF-268 CNS? Entry: `CC1=C[C@H]2c3c(c(O)c(O)c4oc5ccccc5c(=O)c34)[C@H](c3cc(O)c(O)c4oc5ccccc5c(=O)c34)[C@H]2C(C)(C)C1`
Response given: 16.4 µM

Challenge: What is its TGI for SF-268 CNS? Entry: `O=C1O/C(=C(\Br)c2cccc3ccccc23)c2ccccc21`
Response given: > 55.7 µM

Challenge: What is its TGI for SF-268 CNS? Entry: `O=C(/C=C/c1ccsc1)c1ccco1`
Response given: 38.5 µM

Challenge: What is its TGI for SF-268 CNS? Entry: `O=C(Nc1ccc(Cl)cc1)c1ccc(NC2=C(Cl)C(=O)N(Cc3ccccc3)C2=O)cc1`
Response given: 50.2 µM

Challenge: What is its TGI for SF-268 CNS? Entry: `CCOC(=O)c1[nH]c(-c2ccc(Cl)cc2)cc1-c1cccnc1`
Response given: > 100 µM

Challenge: What is its TGI for SF-268 CNS? Entry: `O=[N+]([O-])/C(C(Cl)=C(Cl)Cl)=C1\NCCO1`
Response given: > 100 µM
